Recorded % IL-6 production, supernatant 1:10 dilut., one value per entry.
- System Tested: Recombinant human IL-1beta (rhIL-1b) (human, UniProt P01584 117-269)
- Test Summary: cell-based or functional assay
Quantity: % IL-6 production, supernatant 1:10 dilut. (%)

Binder: 5.36.1 (antibody, human IgG4, V domains shown, kappa) VH: QVQLQQSGPGLVKPSQTLSLTCAISGDSVSSNSAAWNWIRQSPSRGLEWLGRTYYRSKWYNDYAVSVKSRITINPDTSKNQFSLQLNSVTPEDTAVYYCAREEQQLVRYYYYYGMDVWGQGTTVTVS VL: DIVMTQTPLSLSVTPGQPASISCKSSQSLLHSDGRTYLYWYLQRPGQPPQLLIYEASYRFSGVPDRFSGSGSGTDFTLKISRVEAEDVGIYYCMQSIQLPRTFGQGTRLEIK
Result Unit: %
Val: 8
--
Binder: 6.26.1 (antibody, human IgG4, V domains shown, lambda; also called 6.26.4) VH: QLQLQESGPGLVKPSETLSLTCTVSGGSISRSSYYWGWIRQPPGKGLEWMGNIYYSGSTHYNPSLKSRVTISVDTSKNQFSLKLSSVTAADTAVFYCAKGREYISSSGYGMDVWGQGTTVTVS VL: SYELTQPPSVSVSPGQTASITCSGDKLGNKYVCWYQQKPGQSPVLVIFQDSRRPSGIPERFSGSNSGNTATLTISGTQAMDEADYYCQAWDTSTVIFGGGTKLTVL
Result Unit: %
Val: 8
